Documented clearance across a set of compounds
Assay: Clearance in Wistar Han rat at 1 mg/kg, iv measured upto 7 hrs by LC-MS/MS analysis
Assay type: ADME, organism-based
Details: in vivo
Number only, in mL/min/kg; omit the unit.

Known results for compounds:
{"Input Smiles": "CCNC(=O)c1cc(Cc2cccc3[nH]ccc23)nc(-c2cn(C)nn2)c1", "Assay Result": 21}
{"Input Smiles": "C[C@H](Oc1ccc(C(=O)NC2CC2)cc1-c1cn(C)nn1)c1ccccn1", "Assay Result": 14}

What value of measured clearance is listed for CCNC(=O)c1ccc(OCc2cccc(C)n2)c(-c2cn(C)nn2)c1 ?
19

* * *

Entries annotated with measured log10 IC50
Target: Bromodomain-containing protein 4 (Homo sapiens, UniProt O60885, Y97A)
Test: Inhibition of 6His-Thr-BRD4 (1 to 477 residues) BD1 Y97A mutant (unknown origin) incubated for 30 mins by TR-FRET assay
Use the decimal logarithm of IC50 (µM).

{"Input Smiles": "CCNC(=O)c1cc(Cc2ccccc2OC)nc(-c2cn(C)nn2)c1", "log10 IC50": 1.60}

// returns reported log10 IC50 for input CCNC(=O)c1ccc(OCc2cccc(C)n2)c(-c2cn(C)nn2)c1
1.70

Next up: C[C@H](Oc1ccc(C(=O)NCCC[C@@]2(F)CCCNC2)cc1-c1cn(C)nn1)c1ccccn1
0.60

Now this one: C[C@H](Oc1ccc(C(=O)N[C@H]2[C@@H]3COC[C@@H]32)cc1-c1cn(C)nn1)c1ccccn1
0.20

Proceed to Cn1cc(-c2cc(C(=O)NC3CCOCC3)cc(Cc3ccccc3)n2)nn1
1.30

Another: C[C@H](Oc1ccc(C(=O)NCC2CCOCC2)cc1-c1cn(C)nn1)c1ccccn1
1.50

Do the same for C[C@H](Oc1ccc(C(=O)NCC[C@@H]2CNCCO2)cc1-c1cn(C)nn1)c1ccccn1 please
0.80

Here is the next compound: Cn1cc(-c2cc(C(=O)NCC[C@]3(F)CCCNC3)cc(Cc3ccccc3)n2)nn1
0.80

What about this compound? CCNC(=O)c1ccc(O[C@@H](C)c2ccccn2)c(-c2cn(C)nn2)c1
0.90

Subsequent entry: Cn1cc(-c2ccccc2OCc2ccccc2)nn1
1.30

Query Cn1cc(-c2cc(C(=O)NCCC[C@@]3(F)CCCNC3)cc(Cc3ccccc3)n2)nn1 next
0.70

Check Cn1cc(-c2cc(C(=O)NCCCC3CCNCC3)cc(Cc3ccccc3)n2)nn1 too.
1.00

And Cn1cc(-c2cc(C(=O)NCC[C@H]3CNCCO3)cc(Cc3ccccc3)n2)nn1 ?
1.20

Now try C[C@H](Oc1ccc(C(=O)NCC[C@H]2CNCCO2)cc1-c1cn(C)nn1)c1ccccn1 .
0.90

Next record, please: Cn1cc(-c2cc(C(=O)NCC[C@@H]3CNCCO3)cc(Cc3ccccc3)n2)nn1
1.10

One more compound: CCNC(=O)c1ccc(OCc2ccncc2)c(-c2cn(C)nn2)c1
1.10

Follow-up item: CCNC(=O)c1cc(Cc2cccc3[nH]ccc23)nc(-c2cn(C)nn2)c1
1.00

Same lookup for CCNC(=O)c1ccc(OCc2ccccn2)c(-c2cn(C)nn2)c1 , please.
1.60

* * *

Assay: Permeability of compound
Assay type: ADME
Settings: not told; read-out: permeability
Property: Papp (×10⁻⁶ cm/s)
Express the result in ×10⁻⁶ cm/s but write the number alone.

// below: answered compounds
{"Input Smiles": "C[C@H](Oc1ccc(C(=O)NCCC[C@@]2(F)CCCNC2)cc1-c1cn(C)nn1)c1ccccn1", "Papp (×10⁻⁶ cm/s)": 0.53}
{"Input Smiles": "Cn1cc(-c2cc(C(N)=O)cc(Cc3ccccc3)n2)nn1", "Papp (×10⁻⁶ cm/s)": 14}
{"Input Smiles": "CCNC(=O)c1ccc(OCc2ccccc2)c(-c2cn(C)nn2)c1", "Papp (×10⁻⁶ cm/s)": 4.6}

Shifting focus to the compound that follows.
Find the recorded Papp belonging to CCNC(=O)c1cc(Cc2cccc(OC)c2)nc(-c2cn(C)nn2)c1 and report it.
47

* * *

Assay: Solubility of compound by CLND assay
Type: physicochemical
Property: solubility kinetic

Some solved entries appear below for comparison.
{"Input Smiles": "C[C@H](Oc1ccc(C(=O)NCC[C@@H]2CNCCO2)cc1-c1cn(C)nn1)c1ccccn1", "solubility kinetic": "≥ 177 µg/mL"}
{"Input Smiles": "CCNC(=O)c1cc(Cc2ccccc2OC)nc(-c2cn(C)nn2)c1", "solubility kinetic": "62 µg/mL"}

Which measured solubility kinetic value corresponds to CCNC(=O)c1cc(Cc2ccc(F)cc2)nc(-c2cn(C)nn2)c1 ?
75 µg/mL

For CCNC(=O)c1ccc(OCc2cccc(OC)c2)c(-c2cn(C)nn2)c1 then?
≥ 139 µg/mL

Another molecule to look at: Cn1cc(-c2cc(C(=O)N[C@H]3[C@@H]4COC[C@@H]43)cc(Cc3ccccc3)n2)nn1
≥ 145 µg/mL

For Cn1cc(-c2cc(C(=O)NC3CCOCC3)cc(Cc3ccccc3)n2)nn1 then?
≥ 141 µg/mL

Would you mind doing CCNC(=O)c1ccc(O[C@@H](C)c2ccccn2)c(-c2cn(C)nn2)c1 as well?
≥ 127 µg/mL

Lookup CCNC(=O)c1ccc(OCc2cccc(C)n2)c(-c2cn(C)nn2)c1
≥ 137 µg/mL

Field entry: CCNC(=O)c1ccc(O[C@H](C)c2ccccc2)c(-c2cn(C)nn2)c1
119 µg/mL

* * *

Test: Solubility of compound by CLND assay
Format: physicochemical
solubility kinetic reference

# example entries with known answers
{"Input Smiles": "Cn1cc(-c2cc(C(=O)NCC[C@]3(F)CCCNC3)cc(Cc3ccccc3)n2)nn1", "Assay Result": "≥ 181 µg/mL"}
{"Input Smiles": "Cn1cc(-c2cc(C(=O)NC3CC3)cc(Cc3ccccc3)n2)nn1", "Assay Result": "≥ 76 µg/mL"}
{"Input Smiles": "CCNC(=O)c1ccc(OCc2ccncc2)c(-c2cn(C)nn2)c1", "Assay Result": "≥ 115 µg/mL"}
{"Input Smiles": "CCNC(=O)c1ccc(OCc2ccc(OC)cc2)c(-c2cn(C)nn2)c1", "Assay Result": "≥ 142 µg/mL"}
{"Input Smiles": "Cc1cn(-c2ccccc2OCc2ccccc2)nn1", "Assay Result": "96 µg/mL"}
{"Input Smiles": "CCNC(=O)c1cc(Cc2cccc(F)c2)nc(-c2cn(C)nn2)c1", "Assay Result": "73 µg/mL"}

Next up:
Form field: reported solubility kinetic of Cn1cc(-c2cc(C(N)=O)cc(Cc3ccccc3)n2)nn1
40 µg/mL

* * *

Organism: Homo sapiens
Test: Selectivity index, ratio of pIC50 of BRD4 BD1 (unknown origin) to pIC50 of BRD4 BD2 (unknown origin)
Here the recorded Ratio pIC50 is given for each entry.
Keep it simple and answer with nothing but the number.

What does the data say about its Ratio pIC50? Entry: CCNC(=O)c1ccc(OCc2ccccc2OC)c(-c2cn(C)nn2)c1
160

// repeat for C[C@H](Oc1ccc(C(=O)NCC[C@@H]2CNCCO2)cc1-c1cn(C)nn1)c1ccccn1 and report
250

Now consider CCNC(=O)c1ccc(OCc2ccc(OC)cc2)c(-c2cn(C)nn2)c1 and answer again.
65

Try the compound CCNC(=O)c1ccc(OCc2cccc(C)n2)c(-c2cn(C)nn2)c1
200

Repeat with Cn1cc(-c2cc(C(=O)NCC[C@@H]3CNCCO3)cc(Cc3ccccc3)n2)nn1
400

Then what about the compound CCNC(=O)c1cc(Cc2cccc3[nH]ccc23)nc(-c2cn(C)nn2)c1 ?
315

* * *

Species on record: Homo sapiens
Assay: Selectivity index, ratio of pIC50 of BRD4 BD1 (unknown origin) to pIC50 of BRD4 BD2 (unknown origin)
Threshold rule: Ratio pIC50 greater than or equal to 80 is true; below that, false.

{"Input Smiles": "Cn1cc(-c2ccccc2OCc2ccccc2)nn1", "Group Label": "false"}
{"Input Smiles": "C[C@H](Oc1ccc(C(=O)NCC[C@H]2CNCCO2)cc1-c1cn(C)nn1)c1ccccn1", "Group Label": "true"}
{"Input Smiles": "C[C@H](Oc1ccc(C(N)=O)cc1-c1cn(C)nn1)c1ccccn1", "Group Label": "false"}

Item C[C@H](Oc1ccc(C(=O)NCCC[C@@]2(F)CCCNC2)cc1-c1cn(C)nn1)c1ccccn1 with Ratio pIC50 of 80 or above?
true

Also check Cn1cc(-c2cc(C(=O)N[C@H]3[C@@H]4COC[C@@H]43)cc(Cc3ccccc3)n2)nn1
true

Likewise for Cn1cc(-c2cc(C(=O)NCC3CCOCC3)cc(Cc3ccccc3)n2)nn1 ?
true

Now consider CCNC(=O)c1ccc(O[C@H](C)c2ccccc2)c(-c2cn(C)nn2)c1 and answer again.
false

Same again, this time with CCNC(=O)c1cc(Cc2ccccc2F)nc(-c2cn(C)nn2)c1
true
